# Test system: KB
# assayDetails: Cytotoxicity against human KB cells by MTT assay
# Type: functional, cell-based
Reported IC50 by item:
Value expressed in µM; do not type the unit.

A selection of reference data follows.
INSERT INTO measurements (compound, measure, result) VALUES
  ('CO[C@]1(CC[C@@H](C)CO)O[C@H]2C[C@H]3[C@@H]4CCC5C[C@@H](O[C@H]6O[C@H](CO)[C@@H](O[C@@H]7O[C@H](CO)[C@@H](O)[C@H](O)[C@H]7O)[C@H](O)[C@H]6O[C@@H]6O[C@@H](C)[C@H](O)[C@@H](O)[C@H]6O)CC[C@]5(C)[C@H]4CC[C@]3(C)[C@@]2(O)[C@@H]1C (stereo not given in full)', 'IC50', 5.24),
  ('CO[C@]1(CC[C@@H](C)CO)O[C@H]2C[C@H]3[C@@H]4CCC5C[C@@H](O[C@H]6O[C@H](CO)[C@@H](O)[C@H](O)[C@H]6O[C@@H]6O[C@@H](C)[C@H](O)[C@@H](O)[C@H]6O)CC[C@]5(C)[C@H]4CC[C@]3(C)[C@@]2(O)[C@@H]1C (stereo not given in full)', 'IC50', 5.97);

# next compound below
Entry C[C@@H]1CC[C@@]2(OC1)O[C@H]1C[C@H]3[C@@H]4CC=C5C[C@@H](O[C@@H]6O[C@H](CO)[C@@H](O[C@@H]7O[C@@H](C)[C@H](O)[C@@H](O)[C@H]7O)[C@H](O)[C@H]6O[C@@H]6O[C@@H](C)[C@H](O)[C@@H](O)[C@H]6O)CC[C@]5(C)[C@H]4CC[C@]3(C)[C@H]1[C@@H]2C [DIOSCIN] , IC50 reported as 0.53

----------
Reported IC50 by item:
# System: A2780
# assayDetails: Cytotoxicity against human A2780 cells by MTT assay
# Format: functional, cell-based
Value expressed in µM; do not type the unit.

INSERT INTO assay_data (molecule, measuredtarget, result) VALUES
  ('CO[C@]1(CC[C@@H](C)CO)O[C@H]2C[C@H]3[C@@H]4CCC5C[C@@H](O[C@H]6O[C@H](CO)[C@@H](O[C@@H]7O[C@H](CO)[C@@H](O)[C@H](O)[C@H]7O)[C@H](O)[C@H]6O[C@@H]6O[C@@H](C)[C@H](O)[C@@H](O)[C@H]6O)CC[C@]5(C)[C@H]4CC[C@]3(C)[C@@]2(O)[C@@H]1C (stereo partly drawn)', 'A2780', 8.21);

# next molecule below
Entry C[C@@H]1CC[C@@]2(OC1)O[C@H]1C[C@H]3[C@@H]4CC=C5C[C@@H](O[C@@H]6O[C@H](CO)[C@@H](O[C@@H]7O[C@@H](C)[C@H](O)[C@@H](O)[C@H]7O)[C@H](O)[C@H]6O[C@@H]6O[C@@H](C)[C@H](O)[C@@H](O)[C@H]6O)CC[C@]5(C)[C@H]4CC[C@]3(C)[C@H]1[C@@H]2C , IC50 reported as 0.87

----------
# Test system: BGC-823
# assayDetails: Cytotoxicity against human BGC823 cells by MTT assay
# Format: functional, cell-based
measure: IC50 (µM)
Value expressed in µM; do not type the unit.

INSERT INTO assay_data (compound, result) VALUES
  ('C[C@@H]1CC[C@@]2(OC1)O[C@H]1C[C@H]3[C@@H]4CC=C5C[C@@H](O[C@@H]6O[C@H](CO)[C@@H](O[C@@H]7O[C@@H](C)[C@H](O)[C@@H](O)[C@H]7O)[C@H](O)[C@H]6O[C@@H]6O[C@@H](C)[C@H](O)[C@@H](O)[C@H]6O)CC[C@]5(C)[C@H]4CC[C@]3(C)[C@H]1[C@@H]2C', 1.08);

Entry CO[C@]1(CC[C@@H](C)CO)O[C@H]2C[C@H]3[C@@H]4CCC5C[C@@H](O[C@H]6O[C@H](CO)[C@@H](O[C@@H]7O[C@H](CO)[C@@H](O)[C@H](O)[C@H]7O)[C@H](O)[C@H]6O[C@@H]6O[C@@H](C)[C@H](O)[C@@H](O)[C@H]6O)CC[C@]5(C)[C@H]4CC[C@]3(C)[C@@]2(O)[C@@H]1C (stereo not given in full) , IC50 reported as 7.97

Entry CO[C@]1(CC[C@@H](C)CO)O[C@H]2C[C@H]3[C@@H]4CCC5C[C@@H](O[C@H]6O[C@H](CO)[C@@H](O)[C@H](O)[C@H]6O[C@@H]6O[C@@H](C)[C@H](O)[C@@H](O)[C@H]6O)CC[C@]5(C)[C@H]4CC[C@]3(C)[C@@]2(O)[C@@H]1C (stereo not given in full) , IC50 reported as 4.29

All figures here come from ChEMBL document CHEMBL1955738.
